tested on: Escherichia coli TOP10; test: shrunken log2 fold change of peptide-encoding DNA abundance (4.5 h post-induction vs induction); higher = less antimicrobial activity (less host growth inhibition); conditions: time post-induction: 4.5 h; library: site-saturation at positions 5, 18, 19, 20
readout: shrunken log2 fold change

sequence_record	readout	numeric_value
RRIRWRPPRLPRPRPRPRSFPRP	shrunken log2 fold change	-0.00655
RRIRFRPPRLPRPRPRPQVMPRP	shrunken log2 fold change	-0.265
RRIRGRPPRLPRPRPRPVLYPRP	shrunken log2 fold change	0.069
RRIRFRPPRLPRPRPRPVGYPRP	shrunken log2 fold change	-0.129
RRIRGRPPRLPRPRPRPISYPRP	shrunken log2 fold change	-0.0956
RRIRQRPPRLPRPRPRPNYAPRP	shrunken log2 fold change	-0.0208
RRIRIRPPRLPRPRPRPCFYPRP	shrunken log2 fold change	-0.694
RRIRSRPPRLPRPRPRPIHAPRP	shrunken log2 fold change	-0.0213
RRIRTRPPRLPRPRPRPTPDPRP	shrunken log2 fold change	0.306
RRIRLRPPRLPRPRPRPTVPPRP	shrunken log2 fold change	-0.0925
RRIRCRPPRLPRPRPRPRHLPRP	shrunken log2 fold change	-0.302
RRIRLRPPRLPRPRPRPCEMPRP	shrunken log2 fold change	-0.0934
RRIRKRPPRLPRPRPRPRKVPRP	shrunken log2 fold change	0.596
RRIRGRPPRLPRPRPRPFRKPRP	shrunken log2 fold change	-0.0984
RRIRRRPPRLPRPRPRPVEHPRP	shrunken log2 fold change	0.0989
RRIRRRPPRLPRPRPRPLRNPRP	shrunken log2 fold change	0.94
RRIRIRPPRLPRPRPRPCEAPRP	shrunken log2 fold change	-0.395
RRIRARPPRLPRPRPRPFLGPRP	shrunken log2 fold change	0.0605
RRIRFRPPRLPRPRPRPSRLPRP	shrunken log2 fold change	0.014
RRIRQRPPRLPRPRPRPKMDPRP	shrunken log2 fold change	-0.111

###

system: Escherichia coli TOP10; test: shrunken log2 fold change of peptide-encoding DNA abundance (4.5 h post-induction vs induction); higher = less antimicrobial activity (less host growth inhibition); details: time post-induction: 4.5 h; library: site-saturation at positions 5, 18, 19, 20;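 also: peptides expressed intracellularly from a pBAD plasmid library in pooled LB shake-flask culture, induced with 0.3% L-arabinose, DNA abundance read by NGS, three biological replicates, DESeq2 with apeglm shrinkage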
Quick list: shrunken log2 fold change per entry.

sequence_record	target_or_test_system	shrunken log2 fold change
RRIRLRPPRLPRPRPRPKDNPRP	Escherichia coli TOP10	-0.303
RRIRIRPPRLPRPRPRPNQGPRP	Escherichia coli TOP10	0.0325
RRIRQRPPRLPRPRPRPHAWPRP	Escherichia coli TOP10	0.157
RRIRARPPRLPRPRPRPPNVPRP	Escherichia coli TOP10	0.109
RRIRVRPPRLPRPRPRPIGGPRP	Escherichia coli TOP10	0.801
RRIRYRPPRLPRPRPRPHMYPRP	Escherichia coli TOP10	-0.327
RRIRMRPPRLPRPRPRPFKCPRP	Escherichia coli TOP10	-0.0731
RRIRWRPPRLPRPRPRPIGLPRP	Escherichia coli TOP10	0.0952
RRIRVRPPRLPRPRPRPVEVPRP	Escherichia coli TOP10	-0.0382
RRIRFRPPRLPRPRPRPETQPRP	Escherichia coli TOP10	-0.0941
RRIRVRPPRLPRPRPRPQYLPRP	Escherichia coli TOP10	-0.12
RRIRPRPPRLPRPRPRPNQDPRP	Escherichia coli TOP10	-0.167
RRIRCRPPRLPRPRPRPGAEPRP	Escherichia coli TOP10	0.239
RRIRQRPPRLPRPRPRPPFCPRP	Escherichia coli TOP10	-0.284
RRIRFRPPRLPRPRPRPEPYPRP	Escherichia coli TOP10	0.0129
RRIRARPPRLPRPRPRPYVIPRP	Escherichia coli TOP10	-0.434
